TEST_SYSTEM: purified HIV protease (Human immunodeficiency virus type 1 group M subtype B)
Construct: purified HIV protease was incubated with synthetic peptide
EXPERIMENTAL_DETAILS: HIV-specific protease enzyme test (RP-HPLC analysis of cleavage of a synthetic Gag peptide)
Assay type: biochemical
STUDY_CONDITIONS: substance concentration causing 50% inhibition of protease activity; synthetic peptide substrate imitating Gag cleavage site
Experimental: The results of the examples shown below were determined by the HIV test system described in the following references [compare Hansen, J., Billich, S., Schulze, T., Sukro, S. and Molling, K. (1988), EMBO Journal, Vol. 7, No. 6, pp. 1785-1791]: purified HIV protease was incubated with synthetic peptide which imitates a cleavage site in the Gag precursor protein and represents an in vivo cleavage site of the HIV protease. […]
Starred links: 1 amine or outer side, 2 acyl side, 3 side chain; linkers in the order of their positions; H or OH if unused. Non-standard residues stand in square brackets, D forms with d. Residues, ends and D or L forms follow the SMILES beside them. *: point of attachment. X1 = CC(C)C(C[C@H](O)[C@H](CC1CCCCC1)N[*:1])C(=O)[*:2]; NHCH2(2-pyridyl) = c1ccc(CN*)nc1; Boc = CC(C)(C)OC(=O)*; Aib = CC(C)(N)C(=O)O
REPORTED_ENDPOINT: pIC50
# pIC50 = -log10(concentration in molar units)

CC[C@H](C)[C@H](NC(=O)C(C[C@H](O)[C@H](CC1CCCCC1)NC(=O)C(C)(C)NC(=O)OC(C)(C)C)C(C)C)C(=O)NCc1ccccn1 (stereo partly drawn); 7.00
CC[C@H](C)[C@H](NC(=O)C(C[C@H](O)[C@H](CC1CCCCC1)NC(=O)[C@H](CC(N)=O)NC(=O)[C@H](Cc1ccccc1)NC(=O)C(C)(C)NC(=O)OC(C)(C)C)C(C)C)C(=O)NCc1ccccn1 (stereo partly drawn) [II] (Boc-[Aib]FN[X1]I-{NHCH2(2-pyridyl)}); 7.30

Now for another entry.
What value of pIC50 has been reported for the following compound? CC[C@H](C)[C@H](NC(=O)C(C[C@H](O)[C@H](CC1CCCCC1)NC(=O)[C@H](CC(N)=O)NC(=O)C(C)(C)NC(=O)OC(C)(C)C)C(C)C)C(=O)NCc1ccccn1 (stereo partly drawn)
6.30
